Biological target: T1, human IL-2Rβ (human, UniProt P14784 27-240, limits assumed)
T1 construct: Recombinant protein, coated (ELISA) or immobilised on CM5 (SPR); also called hu IL-2R; interleukin 2 receptor β-chain
T1 sequence: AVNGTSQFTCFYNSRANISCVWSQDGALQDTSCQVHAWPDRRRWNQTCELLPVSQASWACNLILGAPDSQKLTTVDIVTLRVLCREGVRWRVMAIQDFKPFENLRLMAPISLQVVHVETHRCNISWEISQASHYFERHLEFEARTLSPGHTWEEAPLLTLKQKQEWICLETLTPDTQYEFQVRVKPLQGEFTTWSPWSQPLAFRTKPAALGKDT
Assay: P.E. binding ELISA on coated protein
Consider the following binders; for each one, report its P.E. binding ELISA OD.
Quick note: give the figure in OD450 nm, leave out the unit.

Form field P.E. binding ELISA OD, entry FJ1427_P035MP03D03 (VHH, soluble VHH in periplasmic extract; also called clone nr) VHH: QVQLVESGGGLVQVGDSLRLSCAASGRTVGSANMGWFRQAPGKEREFVAVITWSTGSTVYADSVKGRFTISRDNAKNTVYLDLSSLKPEDTAVYYCAADVYPYSGNLNIMDYWGKGTQVTVSS : 0.265

Consider FJ1427 P035MP02F12 (VHH, soluble VHH in periplasmic extract; also called clone nr; 190) VHH: QLQLVESGGGLVQTGTSLRLSCAASGHTSRINAMGWFRQFPGKEREFVAAISRNGGSTVYVDSVKGRFTISRDNAKSTVYLQMNSLKPEDTAVYYCTATDAVGWTTRWMTADFGFWGQGTQVTVSS . Its measured P.E. binding ELISA OD is 0.628

Data point: FJ1427_P035MP02F11 (VHH, soluble VHH in periplasmic extract; also called clone nr) VHH: EVQLVESGGGLVQAGGSLRLSCAASGRDFSSYAMGWFRQAPGKEREFVVAITWTKRSTDFPDSVKGRFTISRDNAKNTVYLDMNSLKPEDTAVYYCASARGLPVTPLGDIIYWGEGTLVTVSS ; P.E. binding ELISA OD = 0.33

The recorded P.E. binding ELISA OD for entry FJ1427_P035MP02G11 (VHH, soluble VHH in periplasmic extract; also called clone nr) VHH: QLQLVESGGGLVQAGGSLRLSCAASGRDFSSYAMGWFRQAPGKEREFVVAITWTKRSTDFPDSVKGRFTISRDNAKNTVYLDMNSLKPEDTAVYYCASARGLPVTPLGDIIYWGEGTLVTVSS equals 0.429

The binder FJ1427_P035MP03G01 (VHH, soluble VHH in periplasmic extract; also called clone nr) VHH: EVQLVESGGGLVQAGGSLRLSCAASGGTFSSYAMGWFRQAPGKEREFVAATTRGGGRTMYAVSTEGRFTCSRDNAKNTVYLLMNRVKPEDTAVYYCAARTSYYSGTYYPASSDFDIWGQGTQVTVSS showed P.E. binding ELISA OD equal to 0.192

# P.E. binding ELISA OD (binder: FJ1427 P035MP03F11 (VHH, soluble VHH in periplasmic extract; also called clone nr) VHH: QVQLVESGGGLAQAGGSLRLSCAASGRTFSQDAKAWFRQAPGKEREFVAAITWSGRDTDYADSVKGRFTIARDNAKNTVYLQMDSLKPEDTAVYYCAVYPQGTIGPYFRSSNHYDYWGQGTQVTVSS ) is 0.474

Entry FJ1427_P035MP03B03 (VHH, soluble VHH in periplasmic extract; also called clone nr; 210) VHH: QLQLVESGGGLVQTGGSLRLSCAVSGSRFISDVMGWYRQVPGKQRELVADMADGGSAKYADSVKGRFSILRDSVKNTVYLQMSSLKPEDTGIYYCKAGLWIAGRHSDYWGQGTQVTVSS — recorded P.E. binding ELISA OD = 0.31

Entry FJ1427 P035MP03D04 (VHH, soluble VHH in periplasmic extract; also called clone nr; 220) VHH: QVQLVESGGGLVQPGGSLRLSCAASGFTFSNYAMSWVRQAPGKELEWVSSITSAGRGTHYADTVKGRFTISRDNDENTLYLQMNSLEPEDTAVYYCAKYSSATYYPPTPAQGRDYRGQGTQVTVSS — recorded P.E. binding ELISA OD = 0.447

Lab note: measured P.E. binding ELISA OD of FJ1427_P035MP03E03 (VHH, soluble VHH in periplasmic extract; also called clone nr) VHH: QVQLVESGGGLVQPGGSLRLSCAVSGGTLHDYGIGWIRQAPGKQREGVSCMSRSDDKTYYADYVKGRFTISKDNAKNTVYLQMISLKPEDTAVYYCAAVDAYGCSLVQPTTYDYWGQGTQVTVSS was 0.281

FJ1427 P035MP03B12 (VHH, soluble VHH in periplasmic extract; also called clone nr) VHH: EVQLVESGGGLVQAGGSLRLSCAASGDVFVRYTMAWFRQAPGKEREFVAAVTDSGRTADYVDSVKGRFTVSRDNAKNTVYLQMNNLKPEDTAVYYCAANTDYFQIRSLDRNTWGQGTQVTVSS has a reported P.E. binding ELISA OD of 0.202

Sample FJ1427 P035MP03H10 (VHH, soluble VHH in periplasmic extract; also called clone nr) VHH: QVQLVESGGGLVQAGGSLRLSCAASGRTFSTTEMGWFRQAPGKEREFVAAITWTGRGTMYAESVEGRFTISRENAKNMVYLQMNSLKPEDTAIYYCAAARRGRAAVRSEGGYDFWGQGTQVTVSS ; P.E. binding ELISA OD observed: 0.578

binder FJ1427_P035MP03E04 (VHH, soluble VHH in periplasmic extract; also called clone nr) VHH: QVQLVESGGGLVQTGGSLRLSCAVSGSHFISDVMGWYRQVPEKQRELVADMADGNSAKYADSVKGRFSILRDSVKNTVYLQMSSLKPEDTGIYYCKAGLWIAGRHSDYWGQGTQVTVSS , P.E. binding ELISA OD observed: 0.22

The value of P.E. binding ELISA OD measured for the binder FJ1427_P035MP03H07 (VHH, soluble VHH in periplasmic extract; also called clone nr) VHH: EVQLVESGGGLVQAGGSLRLSCVVSGDVFVRYTMAWFRQAPGKEREFVAAVTDSGRTTEYVDSVKGRFTVSRDNAKNTVYLQMNNLKPEDTAVYYCAANTDYFQIRSVDNNAWGQGTQVTVSS turned out to be 0.649

Record summary for FJ1427 P035MP03D11 (VHH, soluble VHH in periplasmic extract; also called clone nr) VHH: QVQLVESGGGLVQAGGSLRLSCAASGRTFSTTDVGWFRQAPGKEREFVAAITWSSHSTLYADSVEGRFTVTRENAKNTVYLQMNSLKPEDTAVYYCAAVRRGWAVVRTEGAYDFWGQGTQVTVSA : reported P.E. binding ELISA OD = 0.118

Entry under test: FJ1427_P035MP03D10 (VHH, soluble VHH in periplasmic extract; also called clone nr) VHH: QVQLQESGGGLVQAGDSLRLSCVVSGRDFSGYTMGWFRQPPGKEREFVALITWSTGRVHYTDSVEGRFTISRDSAKNTVYLQMNSLKPEDTAVYTCAAGRVGYTTNLHSYDYSGQGTQVIVSA . Its P.E. binding ELISA OD was 0.118
